# system name: HLA-B*40:01
# protocol summary: IEDB peptide-MHC binding, purified MHC/competitive/radioactivity; bounds were set here for any values at or beyond the usual limits of such assays
# cond: source organism: Hepatitis B virus
# IC50 per entry

- input sequence: "AELLAACFA"
  IC50: "585 nM"
- input sequence: "RETVLEYLV"
  IC50: "412 nM"
- input sequence: "AELLAACF"
  IC50: "734 nM"

====

Listed here are sequences together with their documented IC50.
# system name: HLA-B*18:01
# protocol summary: IEDB peptide-MHC binding, purified MHC/competitive/radioactivity; bounds were set here for any values at or beyond the usual limits of such assays
# cond: source organism: Plasmodium falciparum

- input sequence: "SENERGYYI"
  IC50: "301 nM"
- input sequence: "DEVDLYLLM"
  IC50: "17 nM"
- input sequence: "RENANQLVV"
  IC50: "757 nM"
- input sequence: "DEFKPIVQY"
  IC50: "3.9 nM"
- input sequence: "NELNYDNAGI"
  IC50: "4610 nM"

====

Catalogue of pIC50 readings, one per entry.
# system name: HLA-B*40:02
# protocol summary: IEDB peptide-MHC binding, purified MHC/competitive/radioactivity; bounds were set here for any values at or beyond the usual limits of such assays
# cond: source organism: Human immunodeficiency virus 1
pIC50: −log10 of the molar value.
endpoint name: pIC50

- input sequence: "IEAEVIPA"
  endpoint name: "pIC50"
  lt gt eq: "="
  numeric readout: 7.21
- input sequence: "AENLWVTVY"
  endpoint name: "pIC50"
  lt gt eq: "="
  numeric readout: 7.05
- input sequence: "QEILDLWVY"
  endpoint name: "pIC50"
  lt gt eq: "="
  numeric readout: 5.34
- input sequence: "AENLYVTVF"
  endpoint name: "pIC50"
  lt gt eq: "="
  numeric readout: 8.51
- input sequence: "TERQANFL"
  endpoint name: "pIC50"
  lt gt eq: "="
  numeric readout: 7.64
- input sequence: "WEFVNTPPL"
  endpoint name: "pIC50"
  lt gt eq: "="
  numeric readout: 8.07
- input sequence: "NETPGIRYQY"
  endpoint name: "pIC50"
  lt gt eq: "≤"
  numeric readout: 4.70

====

# system name: HLA-B*45:01
# protocol summary: IEDB peptide-MHC binding, purified MHC/competitive/radioactivity; filed as Kd, often an IC50 or EC50 that approximates it; bounds were set here for any values at or beyond the usual limits of such assays
# cond: source organism: Hepatitis B virus
endpoint name: Kd (µM)

- input sequence: "VELLSFLPSDF"
  quantity unit: "µM"
  numeric readout: 10.4

====

# system name: HLA-B*18:01
# protocol summary: IEDB peptide-MHC binding, purified MHC/competitive/radioactivity; filed as Kd, often an IC50 or EC50 that approximates it; bounds were set here for any values at or beyond the usual limits of such assays
# cond: source organism: Hepatitis B virus

- input sequence: "AELLAACFA"
  Kd [µM]: 13.5

====

# system name: HLA-B*18:01
# protocol summary: IEDB peptide-MHC binding, purified MHC/competitive/radioactivity; bounds were set here for any values at or beyond the usual limits of such assays
# cond: source organism: Hepatitis B virus

- input sequence: "VELLSFLPSDF"
  quantity unit: "nM"
  IC50: 414

Value source: the Immune Epitope Database (IEDB)
